assay: self-splicing fitness, log relative to wild type (ln ratio); higher = more splicing; Tetrahymena group I intron in knt gene, E. coli kanamycin selection, DiMSum; sequences stand for … in CUCUCU…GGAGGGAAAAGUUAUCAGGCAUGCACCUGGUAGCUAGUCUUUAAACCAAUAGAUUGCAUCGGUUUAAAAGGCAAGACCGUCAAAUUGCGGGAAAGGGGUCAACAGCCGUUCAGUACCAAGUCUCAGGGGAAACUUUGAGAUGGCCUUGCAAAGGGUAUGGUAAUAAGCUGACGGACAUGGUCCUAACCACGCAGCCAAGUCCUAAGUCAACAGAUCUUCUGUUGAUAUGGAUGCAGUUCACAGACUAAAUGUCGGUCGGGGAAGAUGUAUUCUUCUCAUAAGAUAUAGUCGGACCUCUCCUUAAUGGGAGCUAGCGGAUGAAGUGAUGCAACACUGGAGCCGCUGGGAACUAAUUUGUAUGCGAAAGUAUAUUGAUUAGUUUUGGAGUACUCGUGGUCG; conditions: 30 °C;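 note: selection with 25 µg/mL kanamycin versus none on LB agar overnight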
readout: self-splicing fitness (ln)
# respond with the number and nothing more

Identify self-splicing fitness (ln) associated with the sequence CUUUAGCAAUAUUACGUUGC
-3.08

###

test: self-splicing fitness, log relative to wild type (ln ratio); higher = more splicing; Tetrahymena group I intron in knt gene, E. coli kanamycin selection, DiMSum; sequences stand for … in CUCUCU…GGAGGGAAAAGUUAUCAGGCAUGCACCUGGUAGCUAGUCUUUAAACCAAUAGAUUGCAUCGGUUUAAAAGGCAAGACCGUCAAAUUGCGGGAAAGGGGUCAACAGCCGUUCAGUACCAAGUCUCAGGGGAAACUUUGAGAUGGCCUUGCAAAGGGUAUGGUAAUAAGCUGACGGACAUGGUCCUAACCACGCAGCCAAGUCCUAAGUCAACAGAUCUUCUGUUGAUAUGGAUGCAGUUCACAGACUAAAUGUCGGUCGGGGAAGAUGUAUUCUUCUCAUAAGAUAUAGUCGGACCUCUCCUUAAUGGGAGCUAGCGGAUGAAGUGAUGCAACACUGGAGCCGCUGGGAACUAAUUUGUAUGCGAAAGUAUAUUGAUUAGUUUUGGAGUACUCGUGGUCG; details: 37 °C
readout: self-splicing fitness (ln)
# answer = number (no unit)

Below are worked cases with known answers.
GCGAAGCAAUAUUACGUUAU
-1.86
UCUAAGCAAUAUUACGCCCU
-1.78
ACCCAGCAAUAUUACGUUAG
-3.09

Using the record for UACCAGCAAUAUUACGGGAG , state its measured self-splicing fitness (ln).
-1.01

Given the sequence AGUAAGCAAUAUUACGUUCU , write its reported self-splicing fitness (ln).
-1.21

Provide self-splicing fitness (ln) value for the following sequence: UGGCAGCAAUAUUACGAGAA
-1.62

Determine its reported self-splicing fitness (ln): UCGGAGCAAUAUUACGUUGG
-1.77

Consider the sequence UGCAAGCAAUAUUACGGUUC and give its recorded self-splicing fitness (ln).
-1.92

Return reported self-splicing fitness (ln). Input sequence: CAACAGCAAUAUUACGCACU
-0.357

Please supply the value of reported self-splicing fitness (ln) for the item UUCUAGCAAUAUUACGACUA
-1.19

Return self-splicing fitness (ln) for the following sequence: CCAGAGCAAUAUUACGAAGC
-2.71

# return recorded self-splicing fitness (ln) for input GCUCAGCAAUAUUACGAUCC
-0.215

Return value of self-splicing fitness (ln) for input UCCAAGCAAUAUUACGCGGG , no commentary.
-3.8

State its self-splicing fitness (ln): GCUUAGCAAUAUUACGGUUU
-0.908

Report self-splicing fitness (ln) for CGAAAGCAAUAUUACGUUUC
-2.15

Identify measured self-splicing fitness (ln) associated with UAUUAGCAAUAUUACGCUAU
-2.14

For the sequence CGGCAGCAAUAUUACGGGCG , give its measured self-splicing fitness (ln) value.
-0.898

Note down self-splicing fitness (ln) recorded for UCGUAGCAAUAUUACGGGAA
-1.06

Please report the measured self-splicing fitness (ln) for GUACAGCAAUAUUACGUAAG
-0.465

Query self-splicing fitness (ln) for ACUCAGCAAUAUUACGGGCA
0.203

Give self-splicing fitness (ln) for AUACAGCAAUAUUACGGCGU
0.665

Complete the entry with self-splicing fitness (ln) for CGCAAGCAAUAUUACGUUGA
-2.02

Return self-splicing fitness (ln) (reported value) for this sequence: UGUCAGCAAUAUUACGAAGC
-0.785

Tell me its self-splicing fitness (ln) given UGCGAGCAAUAUUACGUGGA as the entry.
-3.49

Please indicate self-splicing fitness (ln) recorded for UAUUAGCAAUAUUACGAUAG
-0.79

In one line, give reported self-splicing fitness (ln) of the entry UUGAAGCAAUAUUACGGCUU .
-2.71

Return value of self-splicing fitness (ln) for input UCAGAGCAAUAUUACGGGGA , no commentary.
-1.1

For the sequence UAUGAGCAAUAUUACGAAUG , report self-splicing fitness (ln).
-1.28

Could you please provide reported self-splicing fitness (ln) for CGAUAGCAAUAUUACGUUAC ? Thanks!
-2.17

###

assay: self-splicing fitness, log relative to wild type (ln ratio); higher = more splicing; Tetrahymena group I intron in knt gene, E. coli kanamycin selection, DiMSum; sequences stand for … in CUCUCU…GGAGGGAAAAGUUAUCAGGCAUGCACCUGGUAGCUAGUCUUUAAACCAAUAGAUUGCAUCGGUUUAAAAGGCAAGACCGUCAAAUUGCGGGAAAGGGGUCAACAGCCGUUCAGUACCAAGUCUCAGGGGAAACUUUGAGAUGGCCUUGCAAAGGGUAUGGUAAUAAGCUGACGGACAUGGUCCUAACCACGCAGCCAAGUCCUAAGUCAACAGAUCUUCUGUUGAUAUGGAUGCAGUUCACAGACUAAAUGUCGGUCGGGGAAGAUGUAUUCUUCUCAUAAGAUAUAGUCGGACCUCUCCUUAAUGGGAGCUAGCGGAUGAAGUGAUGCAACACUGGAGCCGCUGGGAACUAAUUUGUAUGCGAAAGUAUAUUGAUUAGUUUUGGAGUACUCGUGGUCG; conditions: 37 °C
Tick Fulfilled if self-splicing fitness (ln) is -2 or greater. Tick Not fulfilled if self-splicing fitness (ln) is less than -2.

Some solved cases for reference:
CACGAGCAAUAUUACGCGGG
Not fulfilled
CGCGAGCAAUAUUACGGGAC
Not fulfilled
CAUUAGCAAUAUUACGCCAG
Fulfilled
AAUUAGCAAUAUUACGAAAG
Fulfilled
UAGCAGCAAUAUUACGUAAG
Fulfilled
GUUGAGCAAUAUUACGUAGA
Fulfilled
AUCGAGCAAUAUUACGGUGA
Not fulfilled
AUUAAGCAAUAUUACGCCUC
Fulfilled
UGUAAGCAAUAUUACGGUCA
Fulfilled
CAAUAGCAAUAUUACGUGCA
Fulfilled

Now look at this entry.
Does the sequence AUACAGCAAUAUUACGAAUG have recorded self-splicing fitness (ln) that is -2 or more?
Not fulfilled

###

assay: self-splicing fitness, log relative to wild type (ln ratio); higher = more splicing; Tetrahymena group I intron in knt gene, E. coli kanamycin selection, DiMSum; sequences stand for … in CUCUCU…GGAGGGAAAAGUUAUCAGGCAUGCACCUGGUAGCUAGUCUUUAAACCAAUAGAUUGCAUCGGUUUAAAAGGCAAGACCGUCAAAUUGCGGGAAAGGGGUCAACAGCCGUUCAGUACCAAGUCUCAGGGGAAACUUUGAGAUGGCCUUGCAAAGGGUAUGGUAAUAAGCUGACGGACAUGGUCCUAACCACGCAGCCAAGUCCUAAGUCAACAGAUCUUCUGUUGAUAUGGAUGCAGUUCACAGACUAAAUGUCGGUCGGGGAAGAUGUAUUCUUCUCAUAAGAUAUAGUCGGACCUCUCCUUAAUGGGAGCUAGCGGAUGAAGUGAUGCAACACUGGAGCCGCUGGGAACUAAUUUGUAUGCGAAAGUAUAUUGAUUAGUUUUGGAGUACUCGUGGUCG; conditions: 37 °C
# self-splicing fitness (ln) annotations
Give your answer as a number; write no unit.

GCCAAGCAAUAUUACGCAGC
-2.53
AAAUAGCAAUAUUACGAGCU
-0.386
CCUGAGCAAUAUUACGCACU
-2.8
ACUCAGCAAUAUUACGUACU
-0.927
GAGAAGCAAUAUUACGGAAG
-2.39

Determine from records and report self-splicing fitness (ln) for CCUUAGCAAUAUUACGUAAC
-2.41

For the sequence GCAAAGCAAUAUUACGCAAG , give its measured self-splicing fitness (ln) value.
-2.22

Using the record for GAAUAGCAAUAUUACGCACU , state its measured self-splicing fitness (ln).
0.18

Using known records, supply self-splicing fitness (ln) for ACAUAGCAAUAUUACGGUUA
-0.751

Determine from records and report self-splicing fitness (ln) for AGACAGCAAUAUUACGCGAU
-1.29

Given the sequence AACCAGCAAUAUUACGAUCA , write its reported self-splicing fitness (ln).
-0.0996

Assign self-splicing fitness (ln) to the following record: GACUAGCAAUAUUACGCGUG
-0.609

Note self-splicing fitness (ln) for the sequence shown: UAACAGCAAUAUUACGGCGU
-1.01

Indicate its recorded self-splicing fitness (ln); the sequence in question is CUGUAGCAAUAUUACGCAGU
-3.65

Read the entry AAGCAGCAAUAUUACGUCUG and write its reported self-splicing fitness (ln).
-1.72

Report self-splicing fitness (ln) for AGUAAGCAAUAUUACGUUCA
-0.266
